Test: Pharmacokinetic data of compounds in male SD rats
Assay type: in vivo
Details: rat, po, intragastric, 5 mg/kg, suspension MC 0.5%, plasma
Protocol: 6. Pharmacokinetic Data of Compounds Male SD rats (Beijing Vital River Laboratory Animal Technology Co., Ltd) were divided into groups. 3 in each group, received intragastric administration with the suspension of the test sample (5 mg/kg, suspensions MC 0.5%), respectively. Animals were fasted overnight prior to the experiment from 10 h before dosing to 4 h after dosing. […] Samples in the plasma were extracted using protein precipitation and the extracts were analyzed by LC/MS.
endpoint: Cmax
Output should be the measured figure followed by the unit it is expressed in.

For orientation, consider the following solved cases.
record smiles | endpoint result
CS(=O)(=O)c1ccc(CN2C3CC2CN(c2ccc(-c4cc(-c5cnn(C(F)(F)F)c5)cn5ncc(C#N)c45)cn2)C3)cc1 | 3090 ng/mL
COc1ccc(CN2CCN(c3ccc(-c4cc(N5CC(F)(F)C5)cn5ncc(C#N)c45)cn3)CC2)cn1 | 6000 ng/mL
Cn1cc(-c2cc(-c3ccc(N4CCN(Cc5cccc(S(C)(=O)=O)c5)CC4)nc3)c3c(C#N)cnn3c2)cn1 | 1330 ng/mL
Cn1cc(-c2cc(-c3ccc(N4CCN(Cc5ccc(S(C)(=O)=O)cc5)CC4)nc3)c3c(C#N)cnn3c2)cn1 | 3790 ng/mL

List the reported Cmax of each compound below.
1. CSc1ccc(CN2CCN(c3ccc(-c4cc(-c5cnn(C)c5)cn5ncc(C#N)c45)cn3)CC2)nc1
2. CS(=O)(=O)c1ccc(CN2C3CC2CN(c2ccc(-c4cc(-c5cnn(C(F)F)c5)cn5ncc(C#N)c45)cn2)C3)cc1
3. CSc1ccc(CN2CCN(c3ccc(-c4cc(-c5cnn(C)c5)cn5ncc(C#N)c45)cn3)CC2)cn1
4. COc1ccc(CN2C3CC2CN(c2ccc(-c4cc(N5CC(C)(O)C5)cn5ncc(C#N)c45)cn2)C3)cn1

Out:
1. 1660 ng/mL
2. 3560 ng/mL
3. 1490 ng/mL
4. 1460 ng/mL

In: // query Cmax value for entry "CSc1ccc(CN2C3CC2CN(c2ccc(-c4cc(-c5cnn(C(F)F)c5)cn5ncc(C#N)c45)cn2)C3)cn1"
Out: 1140 ng/mL

====

Please respond with reported pIC50 for every item in the list.
Target: RET^V804M (Homo sapiens, UniProt P07949, V804M)
Construct: GST-RET^V804M (658-1114 aa, final concentration of 0.02 nM)
Sequence (P07949 658-1114 V804M): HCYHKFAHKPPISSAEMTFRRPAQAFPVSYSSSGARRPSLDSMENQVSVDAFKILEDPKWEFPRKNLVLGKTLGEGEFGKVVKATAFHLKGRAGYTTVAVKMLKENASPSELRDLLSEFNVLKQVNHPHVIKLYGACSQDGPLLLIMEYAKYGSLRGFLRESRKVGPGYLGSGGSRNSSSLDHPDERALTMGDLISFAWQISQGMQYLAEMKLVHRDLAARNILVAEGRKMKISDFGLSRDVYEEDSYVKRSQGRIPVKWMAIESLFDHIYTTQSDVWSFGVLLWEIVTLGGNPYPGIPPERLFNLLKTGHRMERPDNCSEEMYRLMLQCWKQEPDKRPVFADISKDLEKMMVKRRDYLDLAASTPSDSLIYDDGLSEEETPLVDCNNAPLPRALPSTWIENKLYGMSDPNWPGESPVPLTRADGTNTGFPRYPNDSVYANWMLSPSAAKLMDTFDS
Assay: In vitro enzymatic activity assay on RET^V804M (HTRF)
Conditions: GST-RET^V804M (658-1114 aa) 0.02 nM, ATP 1.5 μM
Give bare numbers, as −log10 of the molar value.

For orientation, consider the following solved cases.
compound | system tested | pIC50
COc1ccc(CN2CCN(c3ccc(-c4cc(N5CC(OC)C5)cn5ncc(C#N)c45)cn3)CC2)cn1 [Example 33] | RET^V804M (Homo sapiens, UniProt P07949, V804M) | 8.55
COc1ccc(CN2CCN(c3ccc(-c4cc(N5CC(C#N)C5)cn5ncc(C#N)c45)cn3)CC2)cn1 [Example 32] | RET^V804M (Homo sapiens, UniProt P07949, V804M) | 8.50
CN(C)C(=S)N1CCN(c2ccc(-c3cc(-c4cnn(C)c4)cn4ncc(C#N)c34)cn2)CC1 [Example 8] | RET^V804M (Homo sapiens, UniProt P07949, V804M) | 9.04

With those in mind, consider the next compound.
In: // query pIC50 value for entry CC1(O)CN(c2cc(-c3ccc(N4CC5CC(C4)N5Cc4cccc(S(C)(=O)=O)c4)nc3)c3c(C#N)cnn3c2)C1 [Example 65]
Out: 8.73

====

Target: RET^V804M (Homo sapiens, UniProt P07949, V804M)
Construct: GST-RET^V804M (658-1114 aa, final concentration of 0.02 nM)
Test: In vitro enzymatic activity assay on RET^V804M (HTRF)
Details: GST-RET^V804M (658-1114 aa) 0.02 nM, ATP 1.5 μM
endpoint: pIC50
One number for each entry, as −log10 of the molar value.

record smiles | pIC50
CS(=O)(=O)c1ccc(CN2C3CC2CN(c2ccc(-c4cc(-c5cnn(C(F)F)c5)cn5ncc(C#N)c45)cn2)C3)nc1 | 8.98
COc1ccc(CN2C3CC2CN(c2ccc(-c4cc(N5CC6(CCOCC6)C5)cn5ncc(C#N)c45)cn2)C3)cn1 | 8.95
C=CC(=O)N1CCN(c2ccc(-c3cc(-c4cnn(C)c4)cn4ncc(C#N)c34)cn2)CC1 | 8.92
Cn1cc(-c2cc(-c3ccc(N4CC5CC(C4)N5Cc4ccc(S(C)(=O)=O)cn4)nc3)c3c(C#N)cnn3c2)cn1 | 9.19
CS(=O)(=O)c1ccc(CN2C3CC2CN(c2ccc(-c4cc(-c5cnn(C(F)F)c5)cn5ncc(C#N)c45)cn2)C3)cc1 | 9.09

With those in mind, consider the next molecule.
In: // query pIC50 value for entry "CS(=O)(=O)c1ccc(CN2C3CC2CN(c2ccc(-c4cc(-c5cnn(C(F)F)c5)cn5ncc(C#N)c45)cn2)C3)cn1"
Out: 9.10

====

Molecular target: VEGFR2 (Homo sapiens)
Sequence (P35968 20-1356): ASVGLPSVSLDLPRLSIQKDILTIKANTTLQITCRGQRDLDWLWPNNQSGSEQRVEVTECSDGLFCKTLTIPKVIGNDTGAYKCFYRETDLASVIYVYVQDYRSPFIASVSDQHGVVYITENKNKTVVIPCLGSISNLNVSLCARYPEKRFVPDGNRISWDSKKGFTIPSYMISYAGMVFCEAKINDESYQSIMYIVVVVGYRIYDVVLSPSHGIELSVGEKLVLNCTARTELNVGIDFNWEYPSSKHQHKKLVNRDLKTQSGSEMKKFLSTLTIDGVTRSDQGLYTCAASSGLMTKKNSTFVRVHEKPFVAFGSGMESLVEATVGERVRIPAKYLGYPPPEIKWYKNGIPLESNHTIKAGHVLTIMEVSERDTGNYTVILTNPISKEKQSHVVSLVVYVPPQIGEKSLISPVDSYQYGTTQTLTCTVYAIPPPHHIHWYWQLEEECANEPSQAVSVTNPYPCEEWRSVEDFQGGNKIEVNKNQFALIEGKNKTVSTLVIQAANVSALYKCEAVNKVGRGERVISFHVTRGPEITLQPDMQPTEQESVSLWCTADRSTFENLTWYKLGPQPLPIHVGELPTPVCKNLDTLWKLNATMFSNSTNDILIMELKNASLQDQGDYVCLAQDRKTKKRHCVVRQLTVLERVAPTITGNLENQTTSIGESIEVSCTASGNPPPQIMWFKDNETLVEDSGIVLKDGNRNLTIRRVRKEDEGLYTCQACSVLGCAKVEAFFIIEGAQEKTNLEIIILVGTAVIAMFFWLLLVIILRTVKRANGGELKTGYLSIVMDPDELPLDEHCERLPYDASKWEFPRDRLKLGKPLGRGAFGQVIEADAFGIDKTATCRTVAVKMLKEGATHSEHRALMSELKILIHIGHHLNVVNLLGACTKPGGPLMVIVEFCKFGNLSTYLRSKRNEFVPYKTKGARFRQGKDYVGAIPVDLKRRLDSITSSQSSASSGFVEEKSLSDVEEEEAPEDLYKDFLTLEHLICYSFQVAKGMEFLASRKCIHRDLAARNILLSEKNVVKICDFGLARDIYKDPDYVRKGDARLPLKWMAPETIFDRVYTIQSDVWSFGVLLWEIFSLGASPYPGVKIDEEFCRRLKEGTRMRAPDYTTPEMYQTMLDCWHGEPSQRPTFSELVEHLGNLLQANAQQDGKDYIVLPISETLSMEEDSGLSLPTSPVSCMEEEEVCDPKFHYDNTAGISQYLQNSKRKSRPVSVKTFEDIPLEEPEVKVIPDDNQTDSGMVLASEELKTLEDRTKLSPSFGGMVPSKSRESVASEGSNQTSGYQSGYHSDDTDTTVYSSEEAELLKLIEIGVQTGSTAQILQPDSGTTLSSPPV
endpoint: pIC50
Numbers only, as −log10 of the molar value.

record smiles | pIC50
CS(=O)(=O)c1ccc(CN2C3CC2CN(c2ccc(-c4cc(N5CC(F)(F)C5)cn5ncc(C#N)c45)cn2)C3)cc1 | 7.77

List the reported pIC50 of each compound below.
1. CSc1ccc(CN2C3CC2CN(c2ccc(-c4cc(-c5cnn(C(F)F)c5)cn5ncc(C#N)c45)cn2)C3)cc1
2. CSc1cc(CN2C3CC2CN(c2ccc(-c4cc(-c5cnn(C(F)F)c5)cn5ncc(C#N)c45)cn2)C3)ccn1
3. CSc1ccc(CN2C3CC2CN(c2ccc(-c4cc(OCC(C)(C)O)cn5ncc(C#N)c45)cn2)C3)cn1

Out:
9.13
8.11
7.43

====

Please respond with reported pIC50 for every item in the list.
Target: RET^V804M (Homo sapiens, UniProt P07949, V804M)
Construct: GST-RET^V804M (658-1114 aa, final concentration of 0.02 nM)
Assay: In vitro enzymatic activity assay on RET^V804M (HTRF)
Settings: GST-RET^V804M (658-1114 aa) 0.02 nM, ATP 1.5 μM
One number for each entry, as −log10 of the molar value.

record smiles | system tested | endpoint | endpoint result
CS(=O)(=O)c1ccc(CN2C3CCC2CN(c2ccc(-c4cc(-c5cnn(C(F)F)c5)cn5ncc(C#N)c45)cn2)C3)cc1 | RET^V804M (Homo sapiens, UniProt P07949, V804M) | pIC50 | 8.26
CS(=O)(=O)c1cccc(CN2C3CC2CN(c2ccc(-c4cc(-c5cnn(C(F)F)c5)cn5ncc(C#N)c45)cn2)C3)c1 | RET^V804M (Homo sapiens, UniProt P07949, V804M) | pIC50 | 9.01
Cn1cc(-c2cc(-c3ccc(N4CC5CC(C4)N5Cc4cccc(S(C)(=O)=O)c4)nc3)c3c(C#N)cnn3c2)cn1 | RET^V804M (Homo sapiens, UniProt P07949, V804M) | pIC50 | 9.63
Cn1cc(-c2cc(-c3cnc(N4CC5CC(C4)N5Cc4ccc(S(C)(=O)=O)cc4)cn3)c3c(C#N)cnn3c2)cn1 | RET^V804M (Homo sapiens, UniProt P07949, V804M) | pIC50 | 8.98
COc1ccc(CN2C3CC2CN(c2ccc(-c4cc(N5CC6(COC6)C5)cn5ncc(C#N)c45)cn2)C3)cn1 | RET^V804M (Homo sapiens, UniProt P07949, V804M) | pIC50 | 9.20

List the reported pIC50 of each compound below.
1. CSc1ccc(CN2C3CCC2CN(c2ccc(-c4cc(-c5cnn(C(F)F)c5)cn5ncc(C#N)c45)cn2)C3)cn1
2. CS(=O)(=O)c1cccc(CN2CCN(c3ccc(-c4cc(-c5cnn(C(F)F)c5)cn5ncc(C#N)c45)cn3)CC2)c1
3. COCC1=C(C(=O)N2CCN(c3ccc(-c4cc(-c5cnn(C)c5)cn5ncc(C#N)c45)cn3)CC2)CCC1
4. CS(=O)(=O)c1ccc(CN2C3CC2CN(c2cnc(-c4cc(-c5cnn(C(F)F)c5)cn5ncc(C#N)c45)cn2)C3)cc1
5. Cn1cc(-c2cc(-c3ccc(N4CCN(C(=O)C5=CCCC5)CC4)nc3)c3c(C#N)cnn3c2)cn1
6. CS(=O)(=O)c1ccc(CN2C3CC2CN(c2ccc(-c4cc(N5CC(C#N)C5)cn5ncc(C#N)c45)cn2)C3)cc1
7. CS(=O)(=O)c1ccc(CN2C3CC2CN(c2ccc(-c4cc(-c5cn[nH]c5)cn5ncc(C#N)c45)cn2)C3)cc1

Out:
1: 8.23; 2: 8.61; 3: 8.83; 4: 8.60; 5: 9.04; 6: 8.83; 7: 9.09

List the reported pIC50 of each compound below.
1. COc1ccc(CN2C3CC2CN(c2ccc(-c4cc(N5CC(O)(C(F)(F)F)C5)cn5ncc(C#N)c45)cn2)C3)cn1
2. CSc1ccc(CN2CCN(c3ccc(-c4cc(-c5cnn(C)c5)cn5ncc(C#N)c45)cn3)CC2)nc1

Out:
1. 8.60
2. 8.91
